- ASSAY_INFO: in vitro
- EXPERIMENTAL_PARAMETERS: rat, microsomes
MEASUREMENT_TYPE: half-life

Record CC1=C(C(=O)Nc2cc(C(=O)O)ccn2)C(c2ccccc2Cl)N=C(Nc2nc3cc(Cl)ccc3o2)N1 (stereo not shown) . Reported half-life: < 10 min

* * *

- SUBJECT_OF_TEST: recombinant human GALK1 (Homo sapiens, UniProt P51570)
- Sequence (P51570 whole entry): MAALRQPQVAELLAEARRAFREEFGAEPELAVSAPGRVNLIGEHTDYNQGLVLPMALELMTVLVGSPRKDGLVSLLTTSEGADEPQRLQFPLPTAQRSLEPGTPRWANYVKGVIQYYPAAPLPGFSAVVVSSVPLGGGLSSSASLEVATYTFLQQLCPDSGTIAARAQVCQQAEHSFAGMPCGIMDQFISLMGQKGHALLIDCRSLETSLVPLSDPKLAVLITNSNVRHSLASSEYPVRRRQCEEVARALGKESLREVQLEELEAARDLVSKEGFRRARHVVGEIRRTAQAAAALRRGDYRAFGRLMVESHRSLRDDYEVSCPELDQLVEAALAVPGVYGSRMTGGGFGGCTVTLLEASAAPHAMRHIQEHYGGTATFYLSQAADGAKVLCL
- ASSAY_INFO: hGALK1 biochemical activity assay (Kinase-Glo Plus, ATP depletion)
- EXPERIMENTAL_PARAMETERS: Tables 2-15; 35 μM ATP, 100 μM galactose, 1 h; bracketed figure after some values (e.g. −1.2) is undefined and not reported; read-out: hGALK IC50
pIC50: −log10 of the molar value.
Threshold check on pIC50: at or above 6 gives 1, strictly below gives 0.

Would you say CC1=C(C(=O)Nc2ccccc2O)C(c2ccccc2Cl)N=C(Nc2nc3ccccc3o2)N1 (stereo not shown) shows pIC50 at minimum 6?
0

Would you say COc1ccc(C2N=C(Nc3nc4ccc(F)cc4o3)NC(C)=C2C(=O)Nc2cc(C(=O)O)ccn2)c(Cl)c1 (racemic) shows pIC50 at minimum 6?
1

Would you say COC(=O)Cc1ccc(NC(=O)C2=C(C)NC(Nc3nc4ccccc4o3)=NC2c2ccccc2Cl)cc1 (stereo not shown) shows pIC50 at minimum 6?
0

Would you say CC1=C(C(=O)Nc2cc(N(C)C)ccn2)C(c2ccc(C)cc2Cl)N=C(Nc2nc3cccc(N)c3o2)N1 (stereo not shown) shows pIC50 at minimum 6?
0

Would you say COc1ccccc1CNC(=O)C1=C(C)NC(Nc2nc3ccccc3o2)=NC1c1ccccc1Cl (stereo not shown) shows pIC50 at minimum 6?
0
